Kindly supply the reported residual activity values for the records listed here.
target: TEK (human); assay: Free Choice Kinase Assay Projects, Flashplate; details: compound 10.0 µM; ATP 1 µM

[in] Indicate the recorded residual activity value for this compound: "CSc1nc(-c2ccnc(N(C(=O)C3CC3)C(=O)C3CC3)c2)c(-c2ccc(F)cc2)n1C"
[out] 24%

[in] Could you please provide reported residual activity for "CSc1nc(-c2ccnc(NC(C)=O)c2)c(-c2ccc(F)cc2)n1C" ? Thanks!
[out] 24%

[in] Find the measured residual activity of "Oc1ccccc1CSc1nc(-c2ccncc2)c(-c2ccc(F)cc2)[nH]1" and report it.
[out] 32%

[in] Return value of residual activity for input "Oc1ccc(CSc2nc(-c3ccncc3)c(-c3ccc(F)cc3)[nH]2)cc1" , no commentary.
[out] 33%

[in] // Input: "Fc1ccc(-c2[nH]c(SCc3ccccc3)nc2-c2ccncc2)cc1" . Output its residual activity only.
[out] 50%

[in] Input "On1c(/C=C/c2ccccc2)nc(-c2ccncc2)c1-c1ccc(F)cc1" , output reported residual activity.
[out] 5%

[in] Using the record for "CSc1ccc(CSc2nc(-c3ccncc3)c(-c3ccc(F)cc3)[nH]2)cc1" , state its measured residual activity.
[out] 21%

[in] Dear colleague, please send me the reported residual activity for CC(Nc1cc(-c2nc(SCc3ccccc3)[nH]c2-c2ccc(F)cc2)ccn1)c1ccccc1 (stereo not given) when you can.
[out] 13%

[in] Assign residual activity to the following record: "Fc1ccc(-c2[nH]c(SCCCc3ccccc3)nc2-c2ccncc2)cc1"
[out] 65%

[in] For the compound "N#CCSc1nc(-c2ccncc2)c(-c2ccc(F)cc2)[nH]1" , give its measured residual activity value.
[out] 10%

====

target: TEK (human); assay: Free Choice Kinase Assay Projects, Flashplate; details: compound 10.0 µM; ATP 1 µM
Assay metric: residual activity (%)
Please reply with the bare figure in % and do not write the unit itself.

[in] Read the entry "Oc1cccc(CSc2nc(-c3ccncc3)c(-c3ccc(F)cc3)[nH]2)c1" and write its reported residual activity.
[out] 18

[in] Consider the compound "Fc1ccc(-c2[nH]c(SCCc3ccccc3)nc2-c2ccncc2)cc1" and give its recorded residual activity.
[out] 51

[in] Assign residual activity to the following record: "CSc1nc(-c2ccnc(NC(=O)C3CC3)c2)c(-c2ccc(F)cc2)n1C"
[out] 8

[in] Item "CSc1ccccc1CSc1nc(-c2ccncc2)c(-c2ccc(F)cc2)[nH]1" : provide residual activity
[out] 48

[in] State its residual activity for this compound: "CSc1ccc(CSc2nc(-c3ccncc3)c(-c3ccc(Br)cc3)[nH]2)cc1"
[out] 21

[in] Kindly indicate its recorded residual activity. Item: "CSc1nc(-c2ccnc(NC(=O)C3CCCC3)c2)c(-c2ccc(F)cc2)n1C"
[out] 35

[in] Given the compound "CSc1nc(-c2ccnc(F)c2)c(-c2ccc(F)cc2)[nH]1" , write its reported residual activity.
[out] 71

[in] Tell me its residual activity given "Fc1ccc(-c2[nH]c(SCc3ccccc3)nc2-c2ccnc(Cl)c2)cc1" as the entry.
[out] 16

[in] Let me know recorded residual activity for "On1c(CCc2ccccc2)nc(-c2ccncc2)c1-c1ccc(F)cc1" , thanks.
[out] 18

[in] Using known records, supply residual activity for "Fc1ccc(-c2[nH]c(SCc3cccc4ccccc34)nc2-c2ccncc2)cc1"
[out] 11
